# study target: human GLP-1 receptor (human, UniProt P43220 24-463)
# test: cell-based or functional assay
*1 amine or outer side, *2 acyl side, *3 side chain or, on linkers, in order; H or OH if unused. Where no end group is shown, it is not given here. Side-chain parts run from the residue outwards. [ ]: non-standard residue; d: D form. The star is where a group is joined. Undecanoyl(11-OPh(4-COOH)) = O=C(O)c1ccc(OCCCCCCCCCCC(=O)*)cc1; Decanoyl(10-(4-HOOC-PhO)) = O=C(O)c1ccc(OCCCCCCCCCC(=O)*)cc1; γGlu = O=C(O)[C@H](CCC(=O)[*:2])N[*:1]; εLys = N[C@@H](CCCCN[*:1])C(=O)[*:2]; 13‑carboxytridecanoyl = C14 diacid; AEEA = NCCOCCOCC(=O)O; Aib = CC(C)(N)C(=O)O
Binary classification by In vitro potency (AlphaScreen cAMP; membranes) EC50, with 100 pM as an inclusive lower bound for yes; all other cases are no.

1) HAEGTFTSDVSSYLEGQAAK([AEEA-AEEA-γGlu-Decanoyl(10-(4-HOOC-PhO))])EFIAHLVQGRK([AEEA-AEEA-γGlu-Decanoyl(10-(4-HOOC-PhO))]) [Comparative compound of Example 3a: Compound of Example 33, Chem. 52, in WO 2011/080103]
yes
2) XXEGTFTSDVSSYLEGQAAKEFIAWLVRGRK (Imp (imidazopropionyl, des-amino histidine) at 7; Aib at 8; eps-amino of Lys26 and Lys37 each acylated with 12-(4-carboxyphenoxy)dodecanoyl-gGlu-Ser-Ser-Gly-Ser-Ser-Gly)
yes
3) HXEGTFTSDVSSYLEGQAAKEFIAWLVRGRK (Aib at 8; eps-amino of Lys26 and Lys37 each acylated with 12-(4-carboxyphenoxy)dodecanoyl-gGlu-Ser-Gly-Ser-eps-Lys)
yes
4) H[Aib]EGTFTSDVSK([εLys-Gly-Ser-Ser-Gly-Ser-Ser-γGlu-Undecanoyl(11-OPh(4-COOH))])YLEGQAAK([εLys-Gly-Ser-Ser-Gly-Ser-Ser-γGlu-Undecanoyl(11-OPh(4-COOH))])EFIAWLVQGRG
no
5) H[Aib]EGTFTSDVSK([εLys-Gly-Ser-Ser-Gly-Ser-Ser-Gly-Ser-Ser-Gly-Ser-Ser-γGlu-Undecanoyl(11-OPh(4-COOH))])YLEGQAAK([εLys-Gly-Ser-Ser-Gly-Ser-Ser-Gly-Ser-Ser-Gly-Ser-Ser-γGlu-Undecanoyl(11-OPh(4-COOH))])EFIAWLVQGRG
yes
6) H[Aib]EGTFTSDVSK([AEEA-AEEA-γGlu-13‑carboxytridecanoyl])YLEGQAAK([AEEA-AEEA-γGlu-13‑carboxytridecanoyl])EFIAWLVQGRG [Comparative compound of Example 22a: Compound of Example 141, Chem. 189, in WO 2012/062803]
yes
7) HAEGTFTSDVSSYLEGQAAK([Gly-Ser-Ser-Gly-Ser-Ser-γGlu-Decanoyl(10-(4-HOOC-PhO))])EFIAWLVRGRK([Gly-Ser-Ser-Gly-Ser-Ser-γGlu-Decanoyl(10-(4-HOOC-PhO))])E
no
8) H[Aib]EGTFTSDVSK([AEEA-AEEA-γGlu-Decanoyl(10-(4-HOOC-PhO))])YLEGQAAK([AEEA-AEEA-γGlu-Decanoyl(10-(4-HOOC-PhO))])EFIAWLVQGRG [Comparative compound of Example 9a: Compound of Example 92, Chem. 111, in WO 2012/062803]
yes
9) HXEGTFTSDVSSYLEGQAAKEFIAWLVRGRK (Aib at 8; eps-amino of Lys26 and Lys37 each acylated with 11-(4-carboxyphenoxy)undecanoyl-gGlu-Ser-Ser-Gly-Ser-Ser-Gly)
no
10) HAEGTFTSDVSK([Gly-Ser-Ser-Gly-Ser-Ser-γGlu-Decanoyl(10-(4-HOOC-PhO))])YLEEQAAK([Gly-Ser-Ser-Gly-Ser-Ser-γGlu-Decanoyl(10-(4-HOOC-PhO))])EFIAWLVQGRG
no
